- system: human CCR8 (human, UniProt P51685 1-355)
- test: cell-based or functional assay
Entries and their residual hCCL1 (100 nM) Gi2 response, protocol #2, mAb 0.08 µg/mL
Response body: numeric value in %, unit text excluded.

anti-CCR8 mAb 1-5 (antibody, V domains shown, Murine hybridoma mAb) VH: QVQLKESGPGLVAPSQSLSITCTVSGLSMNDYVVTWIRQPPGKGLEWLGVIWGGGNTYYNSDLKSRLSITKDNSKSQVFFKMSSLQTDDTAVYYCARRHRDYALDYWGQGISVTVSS VL: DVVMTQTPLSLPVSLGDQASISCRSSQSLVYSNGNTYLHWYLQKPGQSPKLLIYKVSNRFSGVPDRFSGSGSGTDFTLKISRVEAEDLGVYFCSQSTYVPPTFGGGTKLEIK    99
anti-CCR8 mAb 1-18 (antibody, V domains shown, Murine hybridoma mAb) VH: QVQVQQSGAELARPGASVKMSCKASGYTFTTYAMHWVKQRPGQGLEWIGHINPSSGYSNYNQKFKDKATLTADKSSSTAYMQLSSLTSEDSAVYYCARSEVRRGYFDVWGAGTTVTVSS VL: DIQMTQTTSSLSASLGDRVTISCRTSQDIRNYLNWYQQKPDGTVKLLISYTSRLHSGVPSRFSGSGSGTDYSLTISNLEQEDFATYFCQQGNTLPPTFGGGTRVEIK    52

Value lookup for residual hCCL1 (100 nM) Gi2 response, protocol #2, mAb 0.08 µg/mL; key = anti-CCR8 mAb 1-9 (antibody, V domains shown, Murine hybridoma mAb) VH: EVQLVESGGGLVQPKGSLKLSCAASGFTFNAYAMNWVRQAPGKGLEWLARIRSKSNNYATYYADSVKDRFTISRDDSQSMFYLQMNNLKSEDTAMYYCVRGREAYYRYDGGYYAMDYWGQGTSVTVSS VL: EIVMTQAALSAPVTPGESVSMSCRSSKSLLHSNGNTYLYWFLQRPGQSPQLLIYRMSNLASGVPDRFSGSGSGTAFTLRISRVEAEDVGVYYCMQHLEYPFTFGSGTKLEIK
88
